- assayText: gradient 5% acetonitrile 3 min, to 50% in 2 min, to 85% in 15 min, held 3 min, 100 µL/min
- runParameters: column: Zorbax Extend-C18 2.1 x 50 mm; eluents: water / acetonitrile, 0.1% formic acid
readoutName: RP-LC retention time (s)
Could you give me the number in s? Just the number is fine.

Query string: // RP-LC retention time lookup, key: COC(=O)c1cnc2nc(C)ccc2c1Nc1ccc(OC)c(OC)c1
Result string: 630

Query string: // RP-LC retention time lookup, key: CC(=O)Nc1nc(C)c(-c2ccc(Cl)c(S(=O)(=O)NCCO)c2)s1
Result string: 685

Query string: // RP-LC retention time lookup, key: CCc1ccc(S(=O)(=O)NCC(c2cccs2)N2CCOCC2)s1 (stereo not given)
Result string: 644

Query string: // RP-LC retention time lookup, key: CC(C)N1C(=O)c2cccnc2Sc2cc(NC(=O)c3ccccc3)ccc21
Result string: 864

Query string: // RP-LC retention time lookup, key: O=c1c2cc([N+](=O)[O-])ccc2nc(CN2CCN(c3ccccn3)CC2)n1-c1ccccc1F
Result string: 670
